Origin of values: patent US12540131B2

Collected LRRK2 pIC50 values appear next to each entry.
Biological target: GST tagged truncated human mutant G2019S LRRK2 (Homo sapiens (Human), UniProt Q5S007, G2019S)
Sequence (Q5S007 970-2527 G2019S): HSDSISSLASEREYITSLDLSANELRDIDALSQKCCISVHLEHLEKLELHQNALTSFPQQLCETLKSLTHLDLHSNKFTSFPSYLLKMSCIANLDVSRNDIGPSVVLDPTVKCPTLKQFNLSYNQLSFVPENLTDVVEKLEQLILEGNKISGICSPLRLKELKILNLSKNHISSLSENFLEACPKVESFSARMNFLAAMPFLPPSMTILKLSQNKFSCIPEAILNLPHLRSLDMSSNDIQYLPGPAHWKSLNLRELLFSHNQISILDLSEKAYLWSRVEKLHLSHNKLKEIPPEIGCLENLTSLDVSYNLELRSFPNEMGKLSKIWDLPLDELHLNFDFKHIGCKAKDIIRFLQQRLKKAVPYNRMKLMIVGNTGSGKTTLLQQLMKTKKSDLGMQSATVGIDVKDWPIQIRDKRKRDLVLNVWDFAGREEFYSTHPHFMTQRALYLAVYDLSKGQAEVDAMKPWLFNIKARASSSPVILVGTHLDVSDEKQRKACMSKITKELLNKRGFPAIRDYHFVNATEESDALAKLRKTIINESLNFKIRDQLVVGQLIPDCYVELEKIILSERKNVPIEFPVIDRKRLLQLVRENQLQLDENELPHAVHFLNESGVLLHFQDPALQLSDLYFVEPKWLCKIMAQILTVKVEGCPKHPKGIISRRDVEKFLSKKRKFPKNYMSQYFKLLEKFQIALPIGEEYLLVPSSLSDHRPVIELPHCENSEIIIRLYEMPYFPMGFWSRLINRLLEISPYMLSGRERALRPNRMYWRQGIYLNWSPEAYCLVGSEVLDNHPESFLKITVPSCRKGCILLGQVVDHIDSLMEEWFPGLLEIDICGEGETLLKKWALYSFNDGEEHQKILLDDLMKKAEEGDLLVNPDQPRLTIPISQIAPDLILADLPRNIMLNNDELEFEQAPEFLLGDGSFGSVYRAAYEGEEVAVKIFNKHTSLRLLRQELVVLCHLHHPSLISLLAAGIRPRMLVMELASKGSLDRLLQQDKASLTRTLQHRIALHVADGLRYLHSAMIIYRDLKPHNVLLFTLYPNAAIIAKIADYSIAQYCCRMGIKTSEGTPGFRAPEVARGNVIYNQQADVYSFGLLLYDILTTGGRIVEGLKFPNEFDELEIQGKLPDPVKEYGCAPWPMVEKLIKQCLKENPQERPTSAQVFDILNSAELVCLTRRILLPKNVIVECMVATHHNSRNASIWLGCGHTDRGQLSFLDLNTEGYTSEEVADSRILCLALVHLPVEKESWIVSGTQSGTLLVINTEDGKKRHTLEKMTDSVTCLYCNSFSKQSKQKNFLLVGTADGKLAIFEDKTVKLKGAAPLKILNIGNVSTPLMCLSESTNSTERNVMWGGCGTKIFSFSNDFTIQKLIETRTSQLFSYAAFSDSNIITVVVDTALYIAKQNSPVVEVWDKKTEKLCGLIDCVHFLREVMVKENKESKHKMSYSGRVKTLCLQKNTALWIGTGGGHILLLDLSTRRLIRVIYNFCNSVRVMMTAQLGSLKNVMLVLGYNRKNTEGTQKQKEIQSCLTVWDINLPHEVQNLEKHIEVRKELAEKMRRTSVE
Experiment: LRRK2 Km ATP LanthaScreen Assay
Format: biochemical
Conditions: G2019S LRRK2, 134 μM ATP (Km ATP), mean values
ATTRIBUTE MEASURED: LRRK2 pIC50

O=S1(=O)CC(N2CC[C@@H](c3cc4nc(Nc5cnn(C6CC6(F)F)c5Cl)ncc4cc3Cl)[C@H](F)C2)C1 (single isomer, unassigned)	8.91
Cc1nsc(Nc2ncc3cc(Cl)c([C@H]4CCN(C5CCOC5)C[C@@H]4F)cc3n2)c1Cl (single isomer, unassigned) [Ex-8.22]	8.68
F[C@@H]1CN(C2COC2)C[C@H]1c1cc2nc(Nc3cnn(C4CC4)c3Cl)ncc2cc1Cl (single isomer, unassigned)	7.21

----------
Target: GST tagged truncated human mutant G2019S LRRK2 (Homo sapiens (Human), UniProt Q5S007, G2019S)
Test: LRRK2 Km ATP LanthaScreen Assay
Type: biochemical
Conditions: G2019S LRRK2, 134 μM ATP (Km ATP), mean values
ATTRIBUTE MEASURED: LRRK2 pIC50

Cc1cc(Nc2ncc3cc(Cl)c(C4CCN([C@@H]5COC[C@@H]5O)CC4)cc3n2)n(C2CC2)n1 (single isomer, unassigned)	8.63
CN1CC[C@@H](c2cc3nc(Nc4cnn(C5(C)CC5)c4Cl)ncc3cc2Cl)[C@H](O)C1 (single isomer, unassigned)	8.07
Cc1cc2cnc(Nc3cnn(C4CC4(F)F)c3Cl)nc2cc1[C@@H]1CCN(C2COC[C@H]2O)C[C@H]1F (single isomer, unassigned)	8.44

----------
Target: GST tagged truncated human mutant G2019S LRRK2 (Homo sapiens (Human), UniProt Q5S007, G2019S)
Assay: LRRK2 Km ATP LanthaScreen Assay
Type: biochemical
Settings: G2019S LRRK2, 134 μM ATP (Km ATP), mean values
ATTRIBUTE MEASURED: LRRK2 pIC50

F[C@H]1CN(C2COC2)CC[C@@H]1c1cc2nc(Nc3cnn(C4CC4(F)F)c3Cl)ncc2cc1Cl (single isomer, unassigned) [Ex-8.30]	8.96
COC(C)(C)C12CC(n3cc(Nc4ncc5cc(Cl)c(C6CCN(C7(C)COC7)CC6)cc5n4)cn3)(C1)C2	8.75
O[C@H]1COC[C@H]1N1CCC(c2cc3nc(Nc4cnn(C56CC(C5)C6)c4)ncc3cc2Cl)CC1 (single isomer, unassigned)	8.98
Cc1c(Nc2ncc3cc(Cl)c([C@@H]4CCN(C5COC[C@H]5O)C[C@H]4F)cc3n2)cnn1C1CC1 (single isomer, unassigned)	8.99
Clc1cc2cnc(Nc3cnn(C4CCC4)c3Cl)nc2cc1C1CCNCC1	9.13

----------
Target: GST tagged truncated human mutant G2019S LRRK2 (Homo sapiens (Human), UniProt Q5S007, G2019S)
Test: LRRK2 Km ATP LanthaScreen Assay
Format: biochemical
Conditions: G2019S LRRK2, 134 μM ATP (Km ATP), mean values
ATTRIBUTE MEASURED: LRRK2 pIC50

C[C@@]1(N2CCC(c3cc4nc(Nc5ccnn5C5CC5)ncc4cc3Cl)CC2)COC[C@@H]1O (single isomer, unassigned)	9.03
N#CC1(CN2CCC(c3cc4nc(Nc5cnn(C6CC6)c5Cl)ncc4cc3Cl)CC2)CC1	7.95
Cc1cc2cnc(Nc3cnn(C)c3Cl)nc2cc1[C@@H]1CCN([C@H]2COC[C@H]2O)C[C@H]1F (single isomer, unassigned)	8.00
Cc1c(Nc2ncc3cc(Cl)c(C4CCN(C5COCC5C#N)CC4)cc3n2)cnn1C1CC1 (single isomer, unassigned) [Ex-2.49]	8.88
Cc1cc(Nc2ncc3cc(C)c([C@H]4CCN([C@H]5COC[C@H]5O)C[C@@H]4F)cc3n2)n(C)n1 (single isomer, unassigned)	6.03
Cc1c(Nc2ncc3cc(Cl)c(C4CCN(C[C@@H](O)c5cc(F)cc(F)c5)CC4)cc3n2)cnn1C1CC1	8.76

----------
Target: GST tagged truncated human mutant G2019S LRRK2 (Homo sapiens (Human), UniProt Q5S007, G2019S)
Experiment: LRRK2 Km ATP LanthaScreen Assay
Format: biochemical
Conditions: G2019S LRRK2, 134 μM ATP (Km ATP), mean values; read-out: LRRK2 pIC50 (converted)
Collected IC50 values appear next to each entry.
ATTRIBUTE MEASURED: IC50

Clc1cc2cnc(Nc3cnn(C4CC4)c3Cl)nc2cc1C1CCN(C2COC3(CCC3)C2)CC1 (single isomer, unassigned) [Ex-4.115]	851 pM
Cc1c(Nc2ncc3cc(Cl)c(C4CCN(CC(O)CN5CCOC5=O)CC4)cc3n2)cnn1C1CC1 (single isomer, unassigned) [Ex-4.221]	< 631 pM
Clc1cc2cnc(Nc3cnn(C4CC4)c3Cl)nc2cc1C1CCN(C2COC2)C1 (single isomer, unassigned) [Ex-4.32]	16600 pM
Cc1cc2cnc(Nc3cnn(C4CC4(F)F)c3Cl)nc2cc1C1CCN([C@@H]2COC[C@@H]2O)CC1 (stereo in doubt) [Ex-2.34]	< 631 pM
Cc1c(Nc2ncc3cc(Cl)c(C4CCN(C5COC5)CC4)cc3n2)cnn1C1CC1(F)F (single isomer, unassigned) [Ex-4.179]	< 631 pM
CC1(N2CCC(c3cc4nc(Nc5cnn(C67CC(C6)C7)c5)ncc4cc3Cl)CC2)COC1 [Ex-2.18]	< 631 pM
CC1(C)CC(N2CCC(c3cc4nc(Nc5cnn(C6CC6)c5Cl)ncc4cc3Cl)CC2)CO1 (single isomer, unassigned) [Ex-4.117]	< 631 pM

----------
Collected LRRK2 pIC50 values appear next to each entry.
Target: GST tagged truncated human mutant G2019S LRRK2 (Homo sapiens (Human), UniProt Q5S007, G2019S)
Experiment: LRRK2 Km ATP LanthaScreen Assay
Format: biochemical
Conditions: G2019S LRRK2, 134 μM ATP (Km ATP), mean values
ATTRIBUTE MEASURED: LRRK2 pIC50

Cc1cc2cnc(Nc3cnn(C4CC4)c3C)nc2cc1C1CCN([C@]2(C)COC[C@@H]2O)CC1 (single isomer, unassigned) [Ex-2.39]	8.09
Cc1c(Nc2ncc3cc(Cl)c(C4CCN(C[C@H](O)c5ccc(F)cc5)CC4)cc3n2)cnn1C1CC1 [Ex-4.213]	8.50
Cc1cc(Nc2ncc3cc(Cl)c(C4CCN([C@]5(C)COC[C@@H]5O)CC4)cc3n2)n(C)n1 (single isomer, unassigned) [Ex-1.25]	8.99
CC(n1ncc(Nc2ncc3cc(Cl)c([C@H]4CCN(C)C[C@@H]4F)cc3n2)c1Cl)C(C)(C)O (single isomer, unassigned) [Ex-4.66]	8.70
COCC12CC(n3ncc(Nc4ncc5cc(Cl)c(C6CCN(C7(C)COC7)CC6)cc5n4)c3Cl)(C1)C2 [Ex-8.39]	8.98
[2H]C([2H])([2H])n1nc(C)cc1Nc1ncc2cc(Cl)c(C3CCN([C@H]4COC[C@H]4O)CC3)cc2n1 (single isomer, unassigned) [Ex-2.69]	8.21

----------
Molecular target: GST tagged truncated human mutant G2019S LRRK2 (Homo sapiens (Human), UniProt Q5S007, G2019S)
Experiment: LRRK2 Km ATP LanthaScreen Assay
Format: biochemical
Details: G2019S LRRK2, 134 μM ATP (Km ATP), mean values
ATTRIBUTE MEASURED: LRRK2 pIC50

Cn1ncc(Nc2ncc3cc(Cl)c([C@@H]4CCN([C@]5(C)COC[C@@H]5O)C[C@H]4F)cc3n2)c1Cl (single isomer, unassigned)	>9.20
COCC12CC(n3cc(Nc4ncc5cc(Cl)c(C6CCN(C7(C)COC7)CC6)cc5n4)cn3)(C1)C2	>9.20
O[C@@H]1COC[C@@H]1N1CC[C@H](c2cc3nc(Nc4cnn(C56CC(C5)C6)c4)ncc3cc2Cl)[C@@H](F)C1 (single isomer, unassigned)	>9.20

----------
Target: GST tagged truncated human mutant G2019S LRRK2 (Homo sapiens (Human), UniProt Q5S007, G2019S)
Experiment: LRRK2 Km ATP LanthaScreen Assay
Format: biochemical
Conditions: G2019S LRRK2, 134 μM ATP (Km ATP), mean values
Collected LRRK2 pIC50 values appear next to each entry.
ATTRIBUTE MEASURED: LRRK2 pIC50

Cc1c(Nc2ncc3cc(Cl)c(C4CCN(C[C@H](O)c5ccc(F)cc5F)CC4)cc3n2)cnn1C1CC1 [Ex-4.201]	8.19
Cc1cc2cnc(Nc3cnn(C)c3C)nc2cc1C1CCN([C@]2(C)COC[C@@H]2O)CC1 (single isomer, unassigned) [Ex-2.81]	7.35
Cc1cc2cnc(Nc3cnn(CC(C)(C)O)c3Cl)nc2cc1[C@@H]1CCN(C2COC2)C[C@H]1F (single isomer, unassigned) [Ex-4.81]	9.13
OC1CCCC1N1CC[C@@H](c2cc3nc(Nc4cnn(C5CC5)c4Cl)ncc3cc2Cl)[C@H](F)C1 (single isomer, unassigned) [Ex-4.157]	8.38
Cc1c(Nc2ncc3cc(Cl)c(C4CCN(C5(C)CCCC5O)CC4)cc3n2)cnn1C1CC1 (single isomer, unassigned) [Ex-1.19]	7.59
CC1OCC1N1CCC(c2cc3nc(Nc4cnn(C5CC5)c4Cl)ncc3cc2Cl)CC1 (single isomer, unassigned) [Ex-4.46]	9.13
CC1(N2CC[C@H](c3cc4nc(Nc5cnn(C6CC6(F)F)c5Cl)ncc4cc3Cl)[C@@H](F)C2)COC[C@@H]1O (single isomer, unassigned) [Ex-4.11]	8.73
COC(C)(C)Cn1cc(Nc2ncc3cc(Cl)c(C4CCN(C5COC5)CC4)cc3n2)c(C)n1 [Ex-2.16]	8.94
[2H]C([2H])([2H])n1ncc(Nc2ncc3cc(Cl)c(C4CCN(C5(C)COC5)CC4)cc3n2)c1Cl [Ex-2.72]	8.90
F[C@@H]1CN(C2COC2)CC[C@H]1c1cc2nc(Nc3cnn(C4CC4)c3Cl)ncc2cc1Cl (single isomer, unassigned) [Ex-4.34]	9.12
Cc1cc2cnc(Nc3cnn(CC(C)(C)O)c3Cl)nc2cc1C1CCN(C2COC2)CC1 [Ex-4.80]	8.87
Cn1nc(C(F)(F)F)cc1Nc1ncc2cc(Cl)c([C@@H]3CCN([C@]4(C)COC[C@@H]4O)C[C@H]3F)cc2n1 (single isomer, unassigned) [Ex-4.251]	9.05
FC(F)n1ncc(Nc2ncc3cc(Cl)c(C4CCN(C5COC5)CC4)cc3n2)c1Cl [Ex-8.2]	8.83
